Target: Tm‐mPPase (Thermotoga maritima membrane pyrophosphatase) (Thermotoga maritima, UniProt Q9S5X0)
Construct: recombinant in E. coli C41(DE3), assayed in inverted membrane vesicles; homodimer, subunit mass 77 kDa
Sequence (Q9S5X0 1-726): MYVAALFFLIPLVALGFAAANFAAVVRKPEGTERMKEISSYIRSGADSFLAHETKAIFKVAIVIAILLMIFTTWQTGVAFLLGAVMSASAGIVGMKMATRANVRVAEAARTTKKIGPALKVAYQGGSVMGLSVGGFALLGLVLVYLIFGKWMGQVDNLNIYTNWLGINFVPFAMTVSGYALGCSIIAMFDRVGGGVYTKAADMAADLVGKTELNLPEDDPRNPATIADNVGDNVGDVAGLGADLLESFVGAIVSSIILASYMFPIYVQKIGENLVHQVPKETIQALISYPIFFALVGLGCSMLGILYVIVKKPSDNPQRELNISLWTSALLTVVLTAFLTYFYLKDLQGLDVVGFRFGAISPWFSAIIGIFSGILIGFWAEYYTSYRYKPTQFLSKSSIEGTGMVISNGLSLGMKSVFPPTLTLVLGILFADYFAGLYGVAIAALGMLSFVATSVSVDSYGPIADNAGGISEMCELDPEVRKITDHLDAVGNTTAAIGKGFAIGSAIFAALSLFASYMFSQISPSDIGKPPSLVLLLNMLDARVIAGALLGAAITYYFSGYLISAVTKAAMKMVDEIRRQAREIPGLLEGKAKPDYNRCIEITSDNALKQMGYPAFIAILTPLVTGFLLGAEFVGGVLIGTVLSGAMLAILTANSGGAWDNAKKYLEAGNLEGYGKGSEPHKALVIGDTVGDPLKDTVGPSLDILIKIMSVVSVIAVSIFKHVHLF
Test: inhibition of PPi hydrolysis, active-site titration in inverted membrane vesicles, Pi analyzer
Settings: 25°C, pH 7.2, 5 mM MgCl2, 100 mM NaCl, no K+, 8 μM PPi; competitive; tight-binding fit; apparent, not corrected for substrate; read-out: K i ^app

>  <test.smiles>
NC(P(=O)(O)O)P(=O)(O)O

>  <unit.spec>
nM

>  <Ki>
5

$$$$
